Biological target: T1, recombinant soluble human TREM2 protein (human TREM2 ECD-FlagHis) (human, UniProt Q9NZC2 19-174)
T1 sequence: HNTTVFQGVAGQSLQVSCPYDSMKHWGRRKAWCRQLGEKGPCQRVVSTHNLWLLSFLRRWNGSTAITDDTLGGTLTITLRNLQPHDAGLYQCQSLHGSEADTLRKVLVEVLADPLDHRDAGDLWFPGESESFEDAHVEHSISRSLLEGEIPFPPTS
Assay: Octet BLI binning; competitor: load Ab 24F4
EXPERIMENTAL ENDPOINT: sandwich binding signal
Number only, no unit.

>  <BINDER>
16B8 (antibody, human IgG4, V domains shown, human IgG4 (G4) from hybridoma) VH: QVQLVQSGAEVKKPGASVKVSCKASGYTFTNYGISWVRQAPGQGLEWMGWISAYNGNTNYAQKLQGRVTMTTDTSTSTVYMELRSLRSDDTAVYYCARRGYSYGSFDYWGQGTLVTVSS VL: DIQMTQSPSSVSASVGDRVTVTCRASQDINSWLAWYQQKPGKAPKLLIYAASSLQTGVPSRFSGSGSGTDFTLTISSLQPEDFATYSCQQSNSFPITFGQGTRLEIK

>  <VALUE MEASURED>
0.454

$$$$
>  <BINDER>
32E3 (antibody, human IgG2, V domains shown, human IgG2 from hybridoma) VH: EVQLVQSGAEVKKPGESLKISCKGSGYSFTSYWIGWVRQMPGKGLEWMGIIYPGDSDTRYSPSFQGQVTISADKSISTAYLQWSTLKASDTAIYYCARHDIIPAAPGAFDIWGQGTMVTVSS VL: EFVLTQSPGTLSLSPGERATLSCRASQIISSNYLAWYQQKPGQAPRLLIYSASSRATGIPDRFSGSGSGTDFTLTISRLEPEDFAVYYCQQFDSSPITFGRGTRLDIK

>  <VALUE MEASURED>
-0.021

$$$$

Q: Reported sandwich binding signal for 10E3 (antibody, human IgG2, V domains shown, human IgG2 from hybridoma) VH: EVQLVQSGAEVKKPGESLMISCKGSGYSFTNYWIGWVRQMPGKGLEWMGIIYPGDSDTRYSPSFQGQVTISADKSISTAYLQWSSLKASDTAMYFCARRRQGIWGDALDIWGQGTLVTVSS VL: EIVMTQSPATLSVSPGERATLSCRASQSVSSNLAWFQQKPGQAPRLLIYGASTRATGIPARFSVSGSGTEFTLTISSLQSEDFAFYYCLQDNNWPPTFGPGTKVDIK : what is it?
A: -0.002

Q: # query: sandwich binding signal of entry 5E3 (antibody, human IgG2, V domains shown, human IgG2 from hybridoma) VH: QVQLVQSGAEVKKPGASVKVSCKASGYTFTGYYIHWVRQAPGLGLEWMGWINPYSGGTTSAQKFQGRVTMTRDTSISSAYMELSRLRSDDTAVYYCARDGGYLALYGTDVWGQGTTVTVSS VL: DIQMTQSPSSLSASVGDRVTITCRASQGISNYLAWFQQKPGKAPKSLIYAASSLQSGVPSKFSGSGSGTDFTLTISSLQPEDFATYYCQQYSTYPFTFGPGTKVDIK
A: 0.434

Q: Could you tell me which sandwich binding signal is on file for 13E7 (antibody, human IgG2, V domains shown, human IgG2 from hybridoma) VH: EVQLVQSGAEVKKPGESLMISCKGSGYSFTSYWIGWVRQMPGKGLEWMGIIYPGDSDTRYSPSFQGQVTISADKSISTAYLQWSSLKASDTAMYFCARRRQGIWGDALDFWGQGTLVTVSS VL: EIVMTQSPATLSVSPGERATLSCRASQSVSSNLAWFQQKPGQAPRLLIYGASTRATGIPARFSVSGSGTEFTLTISSLQSEDFAVYYCLQDNNWPPTFGPGTKVDIK ?
A: -0.002

Each recorded value in this set is attributed to patent US20220204611A1.
